Origin of the recorded values: patent US20240360122A1

Test Method Notes: physchem
Condition Summary: pH 7.2
Observed Property: logD at 24 h

Ask | Tell me measured logD at 24 h for N#Cc1ccc(COc2cccc(C3CCN(Cc4nc5ccc(C(=O)O)cc5n4Cc4cncs4)CC3)n2)c(F)c1 [Freeform Type A] please.
Reply | 1.96

###

Test Method Notes: Approximate solubility in different solvents at RT
Type: physicochemical
Condition Summary: 2-MeTHF, organic solvent or mixture, thermodynamic from solid, RT
Observed Property: solubility

Ask | Tell me measured solubility for N#Cc1ccc(COc2cccc(C3CCN(Cc4nc5ccc(C(=O)O)cc5n4Cc4cncs4)CC3)n2)c(F)c1 [Freeform Type A] please.
Reply | 1900 to 6300 µg/mL

###

# S: Solubility listing for each entry below
Test Method Notes: Kinetic solubility in water and bio-relevant media (SGF, FaSSIF, FeSSIF) at 37° C.
Format: physicochemical
Condition Summary: FaSSIF, 37° C., 4 hrs; calculated by freeform
Where a name gives a salt, the structure may show the parent alone.
Entry rule: numbers only, all in µg/mL.

Ask | Tell me measured S: Solubility for N#Cc1ccc(COc2cccc(C3CCN(Cc4nc5ccc(C(=O)O)cc5n4Cc4cncs4)CC3)n2)c(F)c1 [Freeform Type C] please.
Reply | 5

Ask | Tell me measured S: Solubility for N#Cc1ccc(COc2cccc(C3CCN(Cc4nc5ccc(C(=O)O)cc5n4Cc4cncs4)CC3)n2)c(F)c1 [Meglumine salt Type A] please.
Reply | 720

Ask | Tell me measured S: Solubility for N#Cc1ccc(COc2cccc(C3CCN(Cc4nc5ccc(C(=O)O)cc5n4Cc4cncs4)CC3)n2)c(F)c1 [Tris salt Type C] please.
Reply | 280

Ask | Tell me measured S: Solubility for N#Cc1ccc(COc2cccc(C3CCN(Cc4nc5ccc(C(=O)O)cc5n4Cc4cncs4)CC3)n2)c(F)c1 [Potassium salt Type A] please.
Reply | 22

###

Test Method Notes: Solubility of Meglumine salt Type A in SGF and FaSSIF at 37° C. with adjusting pH to that of the blank medium
Assay type: physicochemical
Condition Summary: pH 1.8, simulated gastric fluid, thermodynamic from solid; SGF, 37° C., pH adjusted to 1.8, 4 hrs; read-out: S (solubility)
Where a name gives a salt, the structure may show the parent alone.
Observed Property: solubility at 4 h

Ask | Tell me measured solubility at 4 h for N#Cc1ccc(COc2cccc(C3CCN(Cc4nc5ccc(C(=O)O)cc5n4Cc4cncs4)CC3)n2)c(F)c1 [Meglumine salt Type A] please.
Reply | 120 µg/mL

###

Test Method Notes: Solid state stability at 25° C./60% RH and 40° C./75% RH for 1 week
Type: physicochemical
Condition Summary: Initial
Structures can show the parent of a compound that is named as a salt.
Observed Property: Purity (Area %)
Entry rule: numbers only, all in Area %.

Examples from the recorded data:
[[record]]
molecule = "N#Cc1ccc(COc2cccc(C3CCN(Cc4nc5ccc(C(=O)O)cc5n4Cc4cncs4)CC3)n2)c(F)c1 [Tris salt Type C]"
assay_value = 96.55

[[record]]
molecule = "N#Cc1ccc(COc2cccc(C3CCN(Cc4nc5ccc(C(=O)O)cc5n4Cc4cncs4)CC3)n2)c(F)c1 [Meglumine salt Type A]"
assay_value = 96.73

[[record]]
molecule = "N#Cc1ccc(COc2cccc(C3CCN(Cc4nc5ccc(C(=O)O)cc5n4Cc4cncs4)CC3)n2)c(F)c1 [Freeform Type C]"
assay_value = 96.59

[[record]]
molecule = "N#Cc1ccc(COc2cccc(C3CCN(Cc4nc5ccc(C(=O)O)cc5n4Cc4cncs4)CC3)n2)c(F)c1 [Fumarate Type A]"
assay_value = 96.37


Ask | Tell me measured Purity for N#Cc1ccc(COc2cccc(C3CCN(Cc4nc5ccc(C(=O)O)cc5n4Cc4cncs4)CC3)n2)c(F)c1 [Potassium salt Type A] please.
Reply | 96.41
